- TARGET OF ASSAY: Histone-lysine N-methyltransferase EHMT1 (Homo sapiens, UniProt Q9H9B1)
- Sequence (Q9H9B1 whole entry, the tested form may be a part): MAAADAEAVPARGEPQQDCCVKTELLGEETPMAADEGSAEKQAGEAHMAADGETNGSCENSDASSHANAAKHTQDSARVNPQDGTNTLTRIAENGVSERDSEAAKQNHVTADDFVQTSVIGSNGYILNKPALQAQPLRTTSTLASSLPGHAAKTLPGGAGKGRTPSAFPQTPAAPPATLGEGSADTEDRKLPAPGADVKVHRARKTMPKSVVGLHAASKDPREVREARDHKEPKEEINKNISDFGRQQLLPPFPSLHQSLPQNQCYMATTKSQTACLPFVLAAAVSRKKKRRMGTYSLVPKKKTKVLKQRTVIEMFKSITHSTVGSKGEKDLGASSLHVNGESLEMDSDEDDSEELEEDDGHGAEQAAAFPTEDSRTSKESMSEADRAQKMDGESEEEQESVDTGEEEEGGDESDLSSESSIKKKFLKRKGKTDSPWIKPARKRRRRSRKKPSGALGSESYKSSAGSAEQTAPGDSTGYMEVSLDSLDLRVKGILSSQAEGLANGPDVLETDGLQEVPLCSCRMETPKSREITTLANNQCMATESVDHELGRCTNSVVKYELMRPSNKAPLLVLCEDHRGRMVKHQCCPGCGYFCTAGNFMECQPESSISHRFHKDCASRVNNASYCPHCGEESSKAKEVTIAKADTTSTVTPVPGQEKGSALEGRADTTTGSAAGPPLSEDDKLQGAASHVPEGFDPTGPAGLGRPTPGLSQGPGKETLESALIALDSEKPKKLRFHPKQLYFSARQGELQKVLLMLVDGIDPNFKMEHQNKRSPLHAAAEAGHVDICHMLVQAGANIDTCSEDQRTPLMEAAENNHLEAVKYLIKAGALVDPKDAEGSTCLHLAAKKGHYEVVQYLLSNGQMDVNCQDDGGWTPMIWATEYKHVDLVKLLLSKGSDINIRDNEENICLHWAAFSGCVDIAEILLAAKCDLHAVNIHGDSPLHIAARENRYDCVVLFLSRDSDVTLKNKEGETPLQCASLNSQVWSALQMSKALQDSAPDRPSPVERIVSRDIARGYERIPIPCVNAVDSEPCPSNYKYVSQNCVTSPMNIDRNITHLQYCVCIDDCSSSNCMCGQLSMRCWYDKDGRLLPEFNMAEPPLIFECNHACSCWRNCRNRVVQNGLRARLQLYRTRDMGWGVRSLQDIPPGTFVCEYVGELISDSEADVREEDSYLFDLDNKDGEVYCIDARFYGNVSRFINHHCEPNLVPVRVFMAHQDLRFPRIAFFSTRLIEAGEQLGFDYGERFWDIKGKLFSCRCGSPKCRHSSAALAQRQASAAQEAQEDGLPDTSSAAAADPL
- ASSAY INFO: Inhibition of recombinant GLP catalytic SET domain (982 to 1266 residues) (unknown origin) expressed in Escherichia coli BL21 (DE3) codon plus RIL assessed as inhibition of methylation activity using biotin-labeled H3 (1 to 25 residues) as substrate and [3H]-SAM after 2 hrs by scintillation proximity assay
METRIC NAME: IC50 (nM)
Quick note: give the figure in nM, leave out the unit.

> print(dat)
                            compound.smiles  observed.result
1  CCCCNc1nc(NC2CCN(C)CC2)c2cc(OC)c(OC)cc2n1               35
2  CCN1CCC(Nc2nc(N3CCOCC3)nc3cc(OC)c(OC)cc23)CC1               26
3  CCCCCCN(C)c1nc(NC2CCN(C)CC2)c2cc(OC)c(OC)cc2n1               18

Consider the record given below.
*Q* Given the entry COc1cc2nc(N3CCOCC3)nc(NC3CCN(C4CC4)CC3)c2cc1OC , what IC50 was observed with Histone-lysine N-methyltransferase EHMT1 (Homo sapiens, UniProt Q9H9B1)?
*A* 12
